Record form. Attribute: pKd. Fill in for each entry.
- MEASUREMENT_TARGET: cyno MSLN (Macaca fascicularis)
- EXPERIMENT_NOTES: BLI (Octet), bsAb in 1+1 Fab-scFv-Fc format
pKd is a log-scale quantity: -log10 of the concentration expressed in molar.

Fill in: pKd of XENP32550 (bispecific antibody, part only; not given: anti-CD3 scFv-Fc arm, constant regions, V domains shown, not shown: another chain or arm of the molecule; a dimerising Fc or GST; small tags and cut ends) VH: QVQLVQSGAEVKKPGASVKVSCKASGYTFTGYWMHWVRQAPGQGLEWMGMIHPNSDNTIYYEKFQGRVTMTVDKSISTAYMELSRLRSDDTAVYYCAIIITPVVPKFDYWGQGTLVTVSS VL: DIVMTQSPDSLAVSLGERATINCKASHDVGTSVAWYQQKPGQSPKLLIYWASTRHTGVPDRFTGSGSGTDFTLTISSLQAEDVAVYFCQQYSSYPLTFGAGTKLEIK is ___
9.60

Fill in: pKd of XENP32564 (bispecific antibody, part only; not given: anti-CD3 scFv-Fc arm, constant regions, V domains shown, not shown: another chain or arm of the molecule; a dimerising Fc or GST; small tags and cut ends) VH: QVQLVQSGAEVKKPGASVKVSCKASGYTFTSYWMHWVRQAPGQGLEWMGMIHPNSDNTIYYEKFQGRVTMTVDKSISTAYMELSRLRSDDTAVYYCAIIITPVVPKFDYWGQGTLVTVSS VL: DIVMTQSPDSLAVSLGERATINCKASHDVGTSLAWYQQKPGQSPKLLIYWASTRHTGVPDRFTGSGSGTDFTLTISSLQAEDVAVYFCQQYSSYPLTFGAGTKLEIK is ___
10.53
